assay: soluble on expression in E. coli; label from the status in PepcDB or PDB records
Measured Quantity: soluble on expression in E. coli

Query: In one line, give reported soluble on expression in E. coli of the entry MDMNFDLYMNGVVEQARNEIESAGYEQLTTAEDVDKVLKQDGTTLVMINSVCGCAGGIARPAASHALHYDVLPDRLVTVFAGQDKEATQRAREYFEGYAPSSPSFALVKDGKITEMIERHQIEGHDVMNVINQLQTLFNKYCEERLEHHHHHH .
Result: soluble

Query: In one line, give reported soluble on expression in E. coli of the entry EDPLAKKQTVRLIKDLQRAINKVLCTRLRLSNFFTIDHFIQKLHTARKILVLTGAGVSTSLGIPDFRSSEGFYSKIKHLGLDDPQDVFNYNIFMHDPSVFYNIANMVLPPEKIYSPLHSFIKMLQMKGKLLRNYTQNIDNLESYAGISTDKLVQCHGSFATATCVTCHWNLPGERIFNKIRNLELPLCPYCYKKRREYFPEGYNNKVGVAASQGSMSERPPYILNSYGVLKPDITFFGEALPNKFHKSIREDILECDLLICIGTSLKVAPVSEIVNMVPSHVPQVLINRDPVKHAEFDLSLLGYCDDIAAMVAQKCGWTIPHKKWNDLKNKNFKCQEKDKGVYVVTSDEHPKTL .
Result: soluble
